# reported protein stability index; entries follow
# System: Saccharomyces cerevisiae
# Measurement protocol: protein stability index of tFT-peptide fusion (C-terminal peptide) (PSI (0-1 scale)); higher = more stable (slower turnover)
# Measurement setup: genetic background: das1 deletion; temperature: 30 C
Reported property: protein stability index

LSEKIYDAFGKL [MUS81 C-terminal 12 aa] : 0.723
TEAMNSEIDGTK [ATG16 C-terminal 12 aa] : 0.686
ALGEHYNSLHDS [OTU2 C-terminal 12 aa] : 0.7
LTPADLQFLFNN [RAD16 C-terminal 12 aa] : 0.72
KNEQDEDKWDDF [GCS1 C-terminal 12 aa] : 0.729
KLYNYLLSIEVY [YLR123C C-terminal 12 aa] : 0.144
KINYDAIDGLFR [BRF1 C-terminal 12 aa] : 0.71
KSLFSIIDDLQS [MSH6 C-terminal 12 aa] : 0.731
DEFWTDLFMNDI [WAR1 C-terminal 12 aa] : 0.77
AVFYIFETLSAL [ORT1 C-terminal 12 aa] : 0.653
VFSKKEPFPHSK [YJR084W C-terminal 12 aa] : 0.721
KKNDTPKPKPLK [SFC1 C-terminal 12 aa] : 0.706
LTARKVNALRHR [KNH1 C-terminal 12 aa] : 0.694
KCLYVQVITKSN [ECM8 C-terminal 12 aa] : 0.549
DSFVEFWGRILY [PUL4 C-terminal 12 aa] : 0.704
NVTKLAKERVLF [CPA1 C-terminal 12 aa] : 0.685
PIVHYISDRRTV [ARC15 C-terminal 12 aa] : 0.682
CSGIPSGSGASC [PGU1 C-terminal 12 aa] : 0.691
SSLARPSLFSSE [YBL077W C-terminal 12 aa] : 0.735
YKNNWLILQQQD [KSP1 C-terminal 12 aa] : 0.694

----------
# Test system: Saccharomyces cerevisiae
# Measurement protocol: protein stability index of tFT-peptide fusion (C-terminal peptide) (PSI (0-1 scale)); higher = more stable (slower turnover)
# Measurement setup: genetic background: wild type; temperature: 30 C
Reported property: protein stability index

GTPNLTEEPPHQ : 0.761
NRFRLFRLNFSV : 0.302
SFSSHPPFAPSF : 0.745
GSNRLYRGVTIT : 0.627
IDFISSVLSYLS : 0.663
GVLVFGLGLVRD : 0.623
SWVVLVSFLSWR : 0.357
PRAPRLQAPGPG : 0.752
VWFSFGCGFFGR : 0.659
ELLRTGRVLDRE : 0.71
PLPPHRLPNPRL : 0.784
LCPALLFLLARS : 0.514
DACIVRFRDTYL : 0.688
GEAVGRWSECRS : 0.664
FVLLGVRGGAGW : 0.698
ESDLRFPGVPCI : 0.696
DIDGKRLLGCWI : 0.663
AGVVGRMGWGAT : 0.707
WGGEFLSLTLSS : 0.684

----------
Items are presented alongside their recorded protein stability index.
# System: Saccharomyces cerevisiae
# Measurement protocol: protein stability index of tFT-peptide fusion (C-terminal peptide) (PSI (0-1 scale)); higher = more stable (slower turnover)
# Measurement setup: genetic background: wild type; temperature: 30 C
Reported property: protein stability index

ICLPPVSDVLIR : 0.676
LGFHFFFTLIFF : 0.381
QFTFPPGTSAPV : 0.66
PTCPAPLPPSSP : 0.699
IRQRSRGGLSSD : 0.684
VFHMFGWCGGAR : 0.764
FCVLLFFFPLII : 0.363
APRPSNRRPRPR : 0.629
TTKNTSIKTKLK : 0.67
EECGVIDIILGG : 0.679
LSQISTQRPNQV : 0.694
PPFAPAPALSAS : 0.758
FYSLVQAWSKAP : 0.501
FHGSIVQLTFRA : 0.603
FLSLPLFILFLS : 0.132
DFCCGVILTCVC : 0.279
PDTRLGIIITNM : 0.701
GVAGRRRRAGAW : 0.729
KKQRKRKMTERG : 0.742
PVRCSDLDLTFL : 0.774
RPSLPPSPLLRP : 0.729
VAVSLFVPVLFL : 0.567
VGGAVGAVGGGG : 0.651
YIRINNIYWKKS : 0.399
LLDSLCEKTFRS : 0.677
GLVRGGCGTVGG : 0.774
RVPPGSPYPPLL : 0.732
RPHVLAHSLLLS : 0.584
PLSYRPPSRFYF : 0.587
SCYTEQRVMICL : 0.592
ACSPPPLLPPPL : 0.737
RTLPFPHAGLLF : 0.682
DCPHGDSPRVVS : 0.628
VVFKPHEVRTSD : 0.717
GPGRIPLTSALP : 0.64
SAVARVGDVIAV : 0.613
KKKKEEKQKGLK : 0.69
AEGYRGECSGCM : 0.622
PSFPRSPHTAPH : 0.746
VISLPWRPKSWW : 0.739
AVGGGGRLMCGV : 0.645
VCLFPDTMSWDC : 0.803
PPSQLWNSPSPC : 0.767
PSLPPRPQLVHS : 0.596
LPPLPPPPPLPL : 0.688
HFLVGPLSPLLS : 0.662
SLFSPSQLQSFS : 0.718
PPPLLPPTPLPP : 0.619
RLGWGGVGVAGV : 0.683
CNLVCFRRFLYR : 0.62
RGDGVRGGKNGR : 0.689
LCGYVGVVVCLV : 0.307
GCVGGWLGEGIG : 0.627
SPHVAPRKLQVS : 0.561
VGSTKMRYFGEG : 0.692
PPPGRPDAMTPP : 0.676
PGRRATKVPSPR : 0.719
AVSLWAIFPLYT : 0.611
QLFAYFLGAVIL : 0.611
GVWGGVGGWGVA : 0.697
VGGVWWGGWGHW : 0.733
KKKNKKKEKKKN : 0.714
TCVLYSSGFIYF : 0.665
FSLPRHFRLYRR : 0.713
APIWRSLRGLAI : 0.555
KRGKRKEGGKAR : 0.687
CLRLAFPSGPCI : 0.683
EIRIISGIDDRR : 0.628
PSPPPLGPLPAL : 0.667
SASSPLPPAATG : 0.652
PPFFFIDMGASN : 0.697
MPCPFSSASRAI : 0.668
LHHLASPSPPTP : 0.797
HSFNITSESQKI : 0.653
WPWLHSVACLYS : 0.626
KLKIDKKKNTFE : 0.728
HLTCVVGRDLGI : 0.606
LIVCVKAITIVS : 0.0363
LFSCVFFLCLNF : 0.512
VWRSAMIRVPPC : 0.608
LQFGHGDFRSTV : 0.713
GRDGQTLYLVLL : 0.686

----------
# System: Saccharomyces cerevisiae
# Measurement protocol: protein stability index of tFT-peptide fusion (C-terminal peptide) (PSI (0-1 scale)); higher = more stable (slower turnover)
# Measurement setup: genetic background: wild type; temperature: 30 C
Class (by protein stability index) -- bottom = under 0.2, middle = from 0.2 up to 0.3, top = 0.3 and over

VLLMFFFRFSAL : top
FRVILISACESV : top
VVFFFKFFLLRL : middle
VAIMSIWLVYML : top
WVVWVLVGGFGG : middle
VVIWWFSAVVSV : bottom
VVVVWVVVEIVR : bottom
FFACSLLFVLVF : bottom
LFWTLSKYLIIC : bottom
YIRINNIYWKKS : middle
LGLLIFQWARVL : bottom
CRCLFVVKNWLS : bottom
VFRLFFLLVWLV : bottom
YDVQIEFCVVEV : top
RPSHTSVYRLLH : bottom
RRAVGLANFTIK : top
ASGFLVIPLWVF : bottom
WSMSSPPLLLAS : middle

----------
# System: Saccharomyces cerevisiae
# Measurement protocol: protein stability index of tFT-peptide fusion (C-terminal peptide) (PSI (0-1 scale)); higher = more stable (slower turnover)
# Measurement setup: genetic background: wild type; temperature: 30 C
So basically: protein stability index at 0.7 or higher? That is Criterion met. Lower than 0.7? That is Criterion not met.

TPRTRPFNPPPR : Criterion met
RGGWRVTNKKNI : Criterion not met
RTCPSPSAHLRL : Criterion met
KQNQKKREITAG : Criterion not met
RPTTPKCSSPKP : Criterion met
WVSDTNNTSRRK : Criterion met
YLFPHVRPKFPG : Criterion not met
RKNIKYNTKNSI : Criterion not met
PLRSDSRAESLL : Criterion not met
YPPPPPPPPPRF : Criterion met
PLPPASPCLCSY : Criterion not met
QSPPDDRPPPHP : Criterion not met
GGNRRIKEKSRL : Criterion met
GGGWSRRGVGDR : Criterion not met
SVGSSGFMLFCL : Criterion met
ELLASVSVSSRF : Criterion not met
DLKGCVTFCTSI : Criterion not met
RDPSIVDHTVVT : Criterion met
PLLLAPPPPSPP : Criterion met
PVPPPPPPPPPL : Criterion not met
SGMLVYFGTVCY : Criterion not met
YFPFPPPLLSPP : Criterion met
GGVVGGRAGRGG : Criterion not met
GMNGLFFIAMLG : Criterion not met
TRNGQKVGGVGA : Criterion met
SRVEVEVKIGFQ : Criterion not met
ARGGGPERIHPE : Criterion not met

Provenance of the data: the supplement of paper PMC10724198
